# Test system: Fibroblast
# method_summary: Multiplex assay against human fibroblast
# Format: toxicity, cell-based
# setup_conditions: 12 h, 10 µM, compound concentration 10 uM, replicate 2
Decide using Population Mitotic Cells (%): a value greater than or equal to 40% is MET, a smaller one is NOT MET.

CCOc1cc(C(=O)N2CCC(N3CCN(C)CC3)CC2)ccc1Nc1ncc2c(n1)N(C1CCCC1)c1ccccc1C(=O)N2C = NOT MET
O=C(Nc1ccc(-c2ccnc(Nc3ccc(N4CCOCC4)cc3)n2)cc1)[C@@H]1CCCN1 = NOT MET
COc1ccc(S(=O)(=O)N(CCO)c2ccccc2CN(C)C/C=C/c2ccc(Cl)cc2)cc1.O=P(O)(O)O = MET

Quick check, Population Mitotic Cells (%) >= 40%? Cc1ccc(C(=O)Nc2cccc(C(F)(F)F)c2)cc1Nc1nc(-c2cccnc2)nc2c1cnn2C
NOT MET

Quick check, Population Mitotic Cells (%) >= 40%? C=C1/C(=C\C=C2/CCC[C@]3(C)[C@@H]([C@H](C)/C=C/[C@H](C)C(C)C)CC[C@@H]23)C[C@@H](O)C[C@@H]1O
MET

Quick check, Population Mitotic Cells (%) >= 40%? Cl.O=c1c2cccn2c2ccccc2n1CCCN1CCC(c2ccc(Cl)cc2)CC1
NOT MET

Quick check, Population Mitotic Cells (%) >= 40%? CCCS(=O)(=O)c1nc(NC2CC2)cc(-c2ccc3c(ccn3C3CC(C)(C)NC(C)(C)C3)c2)n1
NOT MET
